Test system: Dkk1-LRP5-TCF-Luciferase
Experiment: Functional Dkk1-LRP5-TCF-Luciferase Assay in U2OS Cells
Conditions: maximum fold induction over DMSO control
# A = MAX FOLD Induction/DMSO CONTROL per entry
The figure you give is taken to be in fold; do not add the unit.

Recorded results for 3 compounds are shown here.
[[record]]
compound = "OC1CCCN([C@@H]2CCN(c3nccc(-c4ccc5ccccc5c4)n3)C2)C1 (some centres unmarked)"
meas_value = 5.120

[[record]]
compound = "CS(=O)(=O)N1CCCN(c2nccc(-c3ccc4ccccc4c3)n2)CC1"
meas_value = 1.510

[[record]]
compound = "CC(C)(C)OC(=O)N1CC[C@@H](Nc2nccc(-c3ccc4ccccc4c3)n2)C1"
meas_value = 0.800


### Prompt Value wanted: A = MAX FOLD Induction/DMSO CONTROL (Dkk1-LRP5-TCF-Luciferase) of entry `CCNCC1CCN(c2nccc(-c3ccc4ccccc4c3)n2)CC1`
### Response 4.200

### Prompt Further, for `CN1CCN(C(=O)[C@H]2CCCN2c2nccc(-c3ccc4ccccc4c3)n2)CC1` ?
### Response 1.600

### Prompt Again, but for CCN(CC)C1CCN(c2nccc(-c3ccc4ccccc4c3)n2)C1 (centres unmarked)
### Response 3.680

### Prompt Next compound up: `NC1CCN(c2nccc(-c3ccc4ccccc4c3)n2)CC1`
### Response 1.580

### Prompt And then `NCC1CCN(C(=O)c2nccc(-c3ccc4ccccc4c3)n2)CC1` , what is it?
### Response 1.380

====

Test system: Dkk1-LRP5-TCF-Luciferase
Assay: Functional Dkk1-LRP5-TCF-Luciferase Assay in U2OS Cells
Details: maximum fold induction over DMSO control
Label scheme for A = MAX FOLD Induction/DMSO CONTROL: lower than 2 fold is 0.0, 2 fold and above is 1.0.

[[record]]
compound = "O=C(N1CCOCC1)N1CC[C@@H](Nc2nccc(-c3ccc4ccccc4c3)n2)C1"
target_system = "Dkk1-LRP5-TCF-Luciferase"
class_name = 0.0

[[record]]
compound = "CN(C)S(=O)(=O)N1CCC(Nc2nccc(-c3ccc4ccccc4c3)n2)CC1"
target_system = "Dkk1-LRP5-TCF-Luciferase"
class_name = 1.0

[[record]]
compound = "CC(=O)N(C)[C@H]1CCN(c2nccc(-c3ccc4ccccc4c3)n2)C1"
target_system = "Dkk1-LRP5-TCF-Luciferase"
class_name = 1.0

[[record]]
compound = "c1ccc2cc(-c3ccnc(N4CCC(CN5CCCCCC5)C4)n3)ccc2c1 (stereo not drawn)"
target_system = "Dkk1-LRP5-TCF-Luciferase"
class_name = 1.0

[[record]]
compound = "CCNC(=O)N1CCCN(c2nccc(-c3ccc4ccccc4c3)n2)CC1"
target_system = "Dkk1-LRP5-TCF-Luciferase"
class_name = 0.0

[[record]]
compound = "COC(=O)[C@@H](N)C1CCN(c2nccc(-c3ccc4ccccc4c3)n2)CC1"
target_system = "Dkk1-LRP5-TCF-Luciferase"
class_name = 0.0

[[record]]
compound = "c1ccc2cc(-c3ccnc(NC4CCCNCC4)n3)ccc2c1 (stereo not drawn)"
target_system = "Dkk1-LRP5-TCF-Luciferase"
class_name = 1.0

[[record]]
compound = "CC(=O)N[C@H]1CC[C@H](Nc2nccc(-c3ccc4ccccc4c3)n2)CC1"
target_system = "Dkk1-LRP5-TCF-Luciferase"
class_name = 1.0

[[record]]
compound = "c1ccc2cc(-c3ccnc(NCc4ccncc4)n3)ccc2c1"
target_system = "Dkk1-LRP5-TCF-Luciferase"
class_name = 1.0

[[record]]
compound = "CN(C)[C@@H]1CCN([C@H]2CCN(c3nccc(-c4ccc5ccccc5c4)n3)C2)C1"
target_system = "Dkk1-LRP5-TCF-Luciferase"
class_name = 1.0


### Prompt Dear colleague, could you confirm whether `CC(=O)NCCC1CCN(c2nccc(-c3ccc4ccccc4c3)n2)CC1` has A = MAX FOLD Induction/DMSO CONTROL at or above 2 fold?
### Response 0.0

### Prompt Also `NCC1(O)CCN(c2nccc(-c3ccc4ccccc4c3)n2)CC1` ?
### Response 1.0

### Prompt Queued: `CS(=O)(=O)N1CCC(Nc2nccc(-c3ccc4ccccc4c3)n2)CC1`
### Response 0.0

### Prompt `NC[C@@H]1CCCN(c2nccc(-c3ccc4ccccc4c3)n2)CC1` , same question.
### Response 1.0

### Prompt Next record, please: `CC(C)(C)OC(=O)N1CC[C@H](Nc2nccc(-c3ccc4ccccc4c3)n2)C1`
### Response 0.0

====

Test system: Dkk1-LRP5-TCF-Luciferase
Experiment: Functional Dkk1-LRP5-TCF-Luciferase Assay in U2OS Cells
Details: maximum fold induction over DMSO control
Sorting guide: entries reporting A = MAX FOLD Induction/DMSO CONTROL beneath 2 fold go in the yes pile, the rest go in the no pile.

Solved cases below.
[[record]]
compound_smiles = "CN(C)C[C@@H]1CCN(c2nccc(-c3ccc4ccccc4c3)n2)C1"
class_name = "no"

[[record]]
compound_smiles = "NCC1CCN(c2ncc(-c3ccc4ccccc4c3)cn2)CC1"
class_name = "no"

[[record]]
compound_smiles = "CCN(CCO)[C@H]1CCN(c2nccc(-c3ccc4ccccc4c3)n2)C1"
class_name = "no"

[[record]]
compound_smiles = "OC1CCN(c2nccc(-c3ccc4ccccc4c3)n2)CC1"
class_name = "no"

[[record]]
compound_smiles = "CC(=O)N1CCC(Nc2nccc(-c3ccc4ccccc4c3)n2)CC1"
class_name = "no"


### Prompt Say whether its A = MAX FOLD Induction/DMSO CONTROL is strictly beneath 2 fold. Entry: `c1ccc2cc(-c3ccnc(NCCN4CCOCC4)n3)ccc2c1`
### Response yes

### Prompt Similarly, `C[C@H](N)C1CCN(c2nccc(-c3ccc4ccccc4c3)n2)CC1` ?
### Response yes

### Prompt Next record, please: `CNC[C@H]1CCN(c2nccc(-c3ccc4ccccc4c3)n2)C1`
### Response yes

### Prompt Can you check `NC(=O)N1CC[C@@H](Nc2nccc(-c3ccc4ccccc4c3)n2)C1` next?
### Response no

### Prompt `COC(=O)N[C@H]1CC[C@H](Nc2nccc(-c3ccc4ccccc4c3)n2)CC1` , same question.
### Response no

====

Test system: Dkk1-LRP5-TCF-Luciferase
Test: Functional Dkk1-LRP5-TCF-Luciferase Assay in U2OS Cells
Conditions: maximum fold induction over DMSO control
Tick 1.0 if A = MAX FOLD Induction/DMSO CONTROL is 2 fold or greater. Tick 0.0 if A = MAX FOLD Induction/DMSO CONTROL is less than 2 fold.

### Prompt Is A = MAX FOLD Induction/DMSO CONTROL for `CN(C)[C@@H]1CCN(c2nccc(-c3ccc4ccccc4c3)n2)C1` at or above 2 fold?
### Response 1.0

### Prompt What do you have for `CNC[C@@H]1CCN(c2nccc(-c3ccc4ccccc4c3)n2)C1` ?
### Response 1.0

### Prompt And Cc1ccc(S(=O)(=O)NC2CCCN(c3nccc(-c4ccc5ccccc5c4)n3)CC2)cc1 (stereo not shown) ?
### Response 0.0

### Prompt One more compound: `O=C1CCCN1[C@H]1CCN(c2nccc(-c3ccc4ccccc4c3)n2)C1`
### Response 1.0

### Prompt // repeat for `CS(=O)(=O)NCCC1CCN(c2nccc(-c3ccc4ccccc4c3)n2)CC1` and report
### Response 0.0

### Prompt Consider next the compound `CN(C)[C@@H]1CCN([C@@H]2CCN(c3nccc(-c4ccc5ccccc5c4)n3)C2)C1` in the same way.
### Response 0.0

### Prompt Next entry: `O=CN1CC[C@@H](Nc2nccc(-c3ccc4ccccc4c3)n2)C1`
### Response 1.0

### Prompt Same again, this time with O=CNC1CCCN(c2nccc(-c3ccc4ccccc4c3)n2)CC1 (stereo not shown)
### Response 0.0

### Prompt Same thing, different compound: `CC(=O)N(C)[C@@H]1CCN(c2nccc(-c3ccc4ccccc4c3)n2)C1`
### Response 1.0

### Prompt Note, next up: `CO[C@H]1CCN(c2nccc(-c3ccc4ccccc4c3)n2)C1`
### Response 0.0

====

System: Dkk1-LRP5-TCF-Luciferase
Assay: Functional Dkk1-LRP5-TCF-Luciferase Assay in U2OS Cells
Conditions: maximum fold induction over DMSO control
Grouping by measured A = MAX FOLD Induction/DMSO CONTROL is done with the following cut points: bottom (below 2 fold), middle (2 fold to below 3 fold), top (3 fold or more)

Field: example entries. Status: answers known.
[[record]]
compound = "CCNC(=O)N1CC[C@H](Nc2nccc(-c3ccc4ccccc4c3)n2)C1"
target_system = "Dkk1-LRP5-TCF-Luciferase"
class_name = "middle"

[[record]]
compound = "NCCC1CCN(c2nccc(-c3ccc4ccccc4c3)n2)C1 (stereo not shown)"
target_system = "Dkk1-LRP5-TCF-Luciferase"
class_name = "top"

[[record]]
compound = "NCC[C@H]1CCCN1c1nccc(-c2ccc3ccccc3c2)n1"
target_system = "Dkk1-LRP5-TCF-Luciferase"
class_name = "middle"

[[record]]
compound = "c1ccc2cc(-c3ccnc(N4CC[C@H](N5CCCCCC5)C4)n3)ccc2c1"
target_system = "Dkk1-LRP5-TCF-Luciferase"
class_name = "top"

[[record]]
compound = "CCN1CCC(CNc2nccc(-c3ccc4ccccc4c3)n2)CC1"
target_system = "Dkk1-LRP5-TCF-Luciferase"
class_name = "top"


### Prompt Note: place this compound into its band. Item: `OC[C@@H]1CCCN(c2nccc(-c3ccc4ccccc4c3)n2)C1`
### Response bottom

### Prompt One more compound: `CC(=O)N1CCC(N(C)c2nccc(-c3ccc4ccccc4c3)n2)CC1`
### Response bottom

### Prompt Follow-up entry: `COC(=O)N[C@@H]1CCN(c2nccc(-c3ccc4ccccc4c3)n2)C1`
### Response bottom

### Prompt And then `CN(C)[C@H]1CCN(c2nccc(-c3ccc4ccccc4c3)n2)C1` , what is it?
### Response top
